MEASURE NAME: melting point

A selection of reference data follows.
INSERT INTO measurements (compound, measure_name, endpoint_result) VALUES
  ('Cc1cc(OC(=O)c2ccccc2)ccc1OCc1ccccc1', 'melting point', '118 to 119 °C'),
  ('CN(O)C(=N)c1nn(-c2c(Cl)cc(C(F)(F)F)cc2Cl)c(N)c1S(=O)C(F)(F)F (stereo unspecified)', 'melting point', '187 to 191 °C'),
  ('O=C1c2ccccc2C(=O)c2c(Nc3ccc(O)cc3)ccc(Nc3ccc(O)cc3)c21', 'melting point', '340 to 342 °C'),
  ('CCCCNc1nc(-c2cc(OC)c(OC)c(OC)c2)nc2sc(C#N)c(C)c12', 'melting point', '192 to 194 °C'),
  ('COc1cc2c(cc1OC)-c1c(-c3nc(C)no3)c(-c3cc(C)c(O)c(C)c3)c(C)n1CC2', 'melting point', '218 to 221 °C');

Let us examine a further case.
Give the reported value of melting point for this record: `CC(C)n1c(/C=C/C=O)c(-c2ccc(F)cc2)c2ccccc2c1=O` 159 to 161 °C

Sourced from a melting point compilation (Tetko et al.; mined from patent text by program, amines drawn as free bases though some values may be those of a salt)
